Task for the reader: assign each of the following variants its reported polymerase ribozyme fitness (log ratio).
B1: TPR 5TU (parent)
chain: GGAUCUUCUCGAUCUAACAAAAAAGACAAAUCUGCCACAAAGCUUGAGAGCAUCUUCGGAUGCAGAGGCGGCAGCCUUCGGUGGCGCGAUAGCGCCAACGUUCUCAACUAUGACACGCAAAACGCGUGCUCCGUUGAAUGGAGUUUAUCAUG

# Variants of: B1
# experiment-description: polymerase ribozyme fitness, log enrichment relative to wild type (log ratio); higher = more active; in vitro selection for triplet polymerase activity
Fewer inactive variants are shown than the library holds.
Reply: number alone, nothing else.

Q) Name the recorded polymerase ribozyme fitness (log ratio) for C76A U145C .
A) -0.484

Q) Name the recorded polymerase ribozyme fitness (log ratio) for A28G G140A .
A) -4.13

Q) Name the recorded polymerase ribozyme fitness (log ratio) for U15G C85U .
A) -0.0947

Q) Name the recorded polymerase ribozyme fitness (log ratio) for A49G C54A C118A .
A) -3.25

Q) Name the recorded polymerase ribozyme fitness (log ratio) for U13G A122C A142C .
A) -2.05

Q) Name the recorded polymerase ribozyme fitness (log ratio) for G92C C103A .
A) -3.4

Q) Name the recorded polymerase ribozyme fitness (log ratio) for U31C A52C C57U G59C C99U U145G .
A) -3.63

Q) Name the recorded polymerase ribozyme fitness (log ratio) for U56A C96U U145A G152A .
A) -2

Q) Name the recorded polymerase ribozyme fitness (log ratio) for G50C A52C U55A G86A .
A) -3.95

Q) Name the recorded polymerase ribozyme fitness (log ratio) for C27U A47C .
A) -1.01

Q) Name the recorded polymerase ribozyme fitness (log ratio) for U55A A60U C118G A119C .
A) -0.427

Q) Name the recorded polymerase ribozyme fitness (log ratio) for U55A U61A C96A C116G .
A) -2.17

Q) Name the recorded polymerase ribozyme fitness (log ratio) for U31C G83C G140C .
A) -4.18

Q) Name the recorded polymerase ribozyme fitness (log ratio) for A49G A91G .
A) -4.05

Q) Name the recorded polymerase ribozyme fitness (log ratio) for G58C C63G C96G .
A) -0.61

Q) Name the recorded polymerase ribozyme fitness (log ratio) for C18G A20C A52G A73U A120G .
A) -3.02

Q) Name the recorded polymerase ribozyme fitness (log ratio) for A47U G50C .
A) -3.22

Reference for the values: the RNAGym collection of RNA variant scans (doi:10.1073/pnas.2313332121)
